mass density: recorded values
details: 338.15 K; 101.33 kPa; Liquid; Vibrating tube method
Give the value, in units of kg/m3, as a plain number.

Example compounds with recorded mass density:
1. CCn1cc[n+](C)c1.F[B-](F)(F)F [1-ethyl-3-methylimidazolium tetrafluoroborate]	1250.24
2. CCCCCCCC[n+]1ccn(C)c1.F[B-](F)(F)F [1-methyl-3-octylimidazolium tetrafluoroborate]	1076.46
3. CCCCCCn1cc[n+](C)c1.F[B-](F)(F)F [1-hexyl-3-methylimidazolium tetrafluoroborate]	1118.54

Now look at this entry.
Exam item: Reported mass density for CCCCn1cc[n+](C)c1.F[B-](F)(F)F [1-butyl-3-methylimidazolium tetrafluoroborate] : what is it?
Marked response: 1173.51
